Cited source: PubChem BioAssay

- TEST TARGET: Luciferin 4-monooxygenase (Photinus pyralis) (UniProt P08659)
- Sequence (P08659 whole entry, looked up): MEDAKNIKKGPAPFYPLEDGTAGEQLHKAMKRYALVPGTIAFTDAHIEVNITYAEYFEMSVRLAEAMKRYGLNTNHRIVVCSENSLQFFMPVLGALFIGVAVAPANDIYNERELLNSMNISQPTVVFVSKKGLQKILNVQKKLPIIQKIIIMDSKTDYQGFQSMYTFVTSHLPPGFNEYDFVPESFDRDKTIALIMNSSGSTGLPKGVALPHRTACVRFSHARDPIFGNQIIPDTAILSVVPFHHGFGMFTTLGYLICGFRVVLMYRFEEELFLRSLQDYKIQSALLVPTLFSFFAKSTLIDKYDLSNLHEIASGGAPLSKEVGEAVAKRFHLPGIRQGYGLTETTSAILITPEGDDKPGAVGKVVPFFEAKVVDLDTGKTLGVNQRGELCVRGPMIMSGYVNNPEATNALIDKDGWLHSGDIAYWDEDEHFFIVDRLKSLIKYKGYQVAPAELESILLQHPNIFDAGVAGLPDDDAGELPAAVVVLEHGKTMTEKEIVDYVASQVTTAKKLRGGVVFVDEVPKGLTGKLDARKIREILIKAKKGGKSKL
- TEST SUMMARY: inhibition of purified Photinus pyralis luciferase – biochemical, luminescence, purified enzyme, 2006 set, primary screen (AID 1141);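 further: cell-free assay with purified firefly luciferase at 100 ng per well in PBS; test concentration not given here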
- SETTINGS: purified firefly luciferase, SteadyGlo luminescence, 30 min; higher = more signal, called active from +8 up or from −8 down
ASSAY METRIC: z-score
Output spec: single numeric token, no unit.

Here's what some known entries look like.
Prompt line: Observed z-score on Luciferin 4-monooxygenase (Photinus pyralis) (UniProt P08659) for CCOC(=O)C1=C[C@@H](C(C)C)N(S(=O)(=O)c2ccc(C)cc2)[C@H]1c1ccc(C(F)(F)F)cc1 , please.
Response line: 0.612

Prompt line: Observed z-score on Luciferin 4-monooxygenase (Photinus pyralis) (UniProt P08659) for CC1CC/C=C\[C@H]2OC34C=CCN(c5ccc6ccccc6c5)C(=O)[C@H]3N(CCCO)C(=O)[C@@H]4C2C(=O)O1 (some centres not stated) , please.
Response line: -0.212

Prompt line: Observed z-score on Luciferin 4-monooxygenase (Photinus pyralis) (UniProt P08659) for N#Cc1ccc(NN2C(C(O)c3ccc(Br)cc3)C=CC3C(=O)N(c4ccccc4)C(=O)C32)cc1 (configuration not stated) , please.
Response line: -0.517

Prompt line: Observed z-score on Luciferin 4-monooxygenase (Photinus pyralis) (UniProt P08659) for O=C1C[C@]2(c3ccc([N+](=O)[O-])cc3)C(=O)N(C3CC3)c3cc(CO)ccc3[C@H]2N1CC12CC3CC(CC(C3)C1)C2 , please.
Response line: -0.124

***
Prompt line: Observed z-score on Luciferin 4-monooxygenase (Photinus pyralis) (UniProt P08659) for C#CCN([C@@H](Cc1ccccc1)C(=O)OC)[C@@H](/C=C/C1CC1)[C@H](O)Cc1ccccc1 , please.
Response line: 0.412

Prompt line: Observed z-score on Luciferin 4-monooxygenase (Photinus pyralis) (UniProt P08659) for NC(=O)[C@H]1[C@@H]2C(=O)O[C@@H](c3ccccc3)[C@@H](c3ccccc3)N2[C@@H](c2ccc(OCCO)cc2)[C@]12C(=O)Nc1ccc(C#CCCO)cc12 , please.
Response line: -1.05

Prompt line: Observed z-score on Luciferin 4-monooxygenase (Photinus pyralis) (UniProt P08659) for CCOC(=O)C[C@H]1[C@H](OC(=O)c2cc3ccccc3oc2=O)[C@@H](NC(=O)c2ccccc2)c2cc(OCCCO)ccc2N1C(=O)c1ccccc1 , please.
Response line: 0.713
